Target: Oxysterol-binding protein 1 (Homo sapiens)
Sequence (P22059 whole entry): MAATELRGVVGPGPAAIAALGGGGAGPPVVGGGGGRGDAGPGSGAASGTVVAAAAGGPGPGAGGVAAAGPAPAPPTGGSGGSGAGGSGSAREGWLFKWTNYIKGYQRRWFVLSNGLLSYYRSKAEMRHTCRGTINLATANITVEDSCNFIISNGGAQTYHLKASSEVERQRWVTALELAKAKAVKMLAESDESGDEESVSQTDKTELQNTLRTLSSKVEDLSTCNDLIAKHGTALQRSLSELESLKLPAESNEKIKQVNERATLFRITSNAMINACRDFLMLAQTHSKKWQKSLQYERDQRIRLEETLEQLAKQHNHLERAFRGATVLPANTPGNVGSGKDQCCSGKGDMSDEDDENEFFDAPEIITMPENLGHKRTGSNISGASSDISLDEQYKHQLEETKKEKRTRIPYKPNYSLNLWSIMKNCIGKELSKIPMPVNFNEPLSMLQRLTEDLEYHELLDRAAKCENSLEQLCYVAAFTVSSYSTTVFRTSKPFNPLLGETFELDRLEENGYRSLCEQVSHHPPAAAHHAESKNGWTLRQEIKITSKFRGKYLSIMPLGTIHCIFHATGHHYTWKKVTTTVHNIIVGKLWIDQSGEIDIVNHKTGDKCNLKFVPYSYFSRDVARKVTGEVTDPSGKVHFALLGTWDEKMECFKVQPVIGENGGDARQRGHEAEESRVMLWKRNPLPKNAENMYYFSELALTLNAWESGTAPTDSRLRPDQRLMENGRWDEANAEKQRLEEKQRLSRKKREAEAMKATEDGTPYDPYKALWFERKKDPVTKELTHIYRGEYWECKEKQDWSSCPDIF
measurementType: pKd
// pKd here means minus log10 of the molar concentration (mol/L)

Please give the documented pKd of CC(C)=CCc1c(O)cc(/C=C/c2cc(O)c3c(c2)C[C@@H]2C(C)(C)[C@H](O)CC[C@@]2(C)O3)cc1O [SCHWEINFURTHIN G]
7.66

This collection of values is drawn from ChEMBL document CHEMBL6087453.
